assay: clinical; details: human, in vivo, po, 280 mg/m2, AUClast
REPORTED_METRIC: AUC(0-t) (ng·h/mL)
Provide the reading as a plain figure in ng·h/mL.

INPUT: Supply recorded AUC(0-t) for CCc1c2c(nc3ccc(OC(=O)N4CCC(N5CCCCC5)CC4)cc13)-c1cc3c(c(=O)n1C2)COC(=O)[C@]3(O)CC [oral irinotecan, reference compound] here.
OUTPUT: 5890

* * *

experiment: Study 2: pharmacokinetics of oral irinotecan and M1, 5-20 mg/m^2 per day for 10 days during a 21 day cycle; details: human, in vivo, oral, 20 mg/m2, Cmax, Day 12; dose group 20 mg/m^2; mean
REPORTED_METRIC: Cmax (ng/mL)
Provide the reading as a plain figure in ng/mL.

INPUT: Supply recorded Cmax for CCc1c2c(nc3ccc(OC(=O)N4CCC(N5CCCCC5)CC4)cc13)-c1cc3c(c(=O)n1C2)COC(=O)[C@]3(O)CC [oral irinotecan, reference compound] here.
OUTPUT: 64.6
